Assay system: c-kit (Homo sapiens, UniProt P10721)
Construct: MO7e (human megakaryocytic leukemia cell line) which had been arrested for 20 hr; endogenous in cells; host or cells: MO7e human megakaryocytic leukemia cell line
Sequence (P10721 26-976): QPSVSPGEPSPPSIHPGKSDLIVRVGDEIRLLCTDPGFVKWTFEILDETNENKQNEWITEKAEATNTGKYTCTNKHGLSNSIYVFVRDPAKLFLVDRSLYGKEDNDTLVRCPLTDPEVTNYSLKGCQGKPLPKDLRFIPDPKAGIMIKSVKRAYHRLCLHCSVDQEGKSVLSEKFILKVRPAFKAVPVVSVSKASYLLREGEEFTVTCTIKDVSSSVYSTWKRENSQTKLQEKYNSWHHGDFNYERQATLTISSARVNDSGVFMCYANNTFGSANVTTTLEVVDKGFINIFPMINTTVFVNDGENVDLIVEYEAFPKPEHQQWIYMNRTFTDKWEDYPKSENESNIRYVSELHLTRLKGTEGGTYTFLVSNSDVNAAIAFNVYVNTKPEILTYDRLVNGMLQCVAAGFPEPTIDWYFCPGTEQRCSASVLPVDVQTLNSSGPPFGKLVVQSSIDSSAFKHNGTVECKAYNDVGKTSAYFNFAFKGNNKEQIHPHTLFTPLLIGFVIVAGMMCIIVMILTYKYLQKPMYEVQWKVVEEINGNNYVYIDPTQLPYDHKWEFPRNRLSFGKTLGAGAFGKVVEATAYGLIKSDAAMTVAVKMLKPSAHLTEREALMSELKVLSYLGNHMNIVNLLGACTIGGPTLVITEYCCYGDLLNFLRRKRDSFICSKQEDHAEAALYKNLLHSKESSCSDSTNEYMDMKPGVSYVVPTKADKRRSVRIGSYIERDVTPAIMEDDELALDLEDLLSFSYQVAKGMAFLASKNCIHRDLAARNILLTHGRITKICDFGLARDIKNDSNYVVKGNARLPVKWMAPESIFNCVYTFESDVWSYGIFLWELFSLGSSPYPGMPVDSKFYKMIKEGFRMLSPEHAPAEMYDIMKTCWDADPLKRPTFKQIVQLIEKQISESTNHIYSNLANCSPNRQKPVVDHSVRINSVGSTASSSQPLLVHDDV
Measurement protocol: Inhibitory activity against c-kit autophosphorylation (MO7e cells, h-SCF)
Type: cell-based
Experimental conditions: MO7e cells, h-SCF stimulation; read-out: c-kit IC50
Endpoint label: IC50 (nM)

Below are worked cases with known answers.
INSERT INTO measurements (molecule, unit_info, observed_value) VALUES
  ('COc1cc2ncnc(Oc3ccc(NC(=S)NC(=O)CCC4CCCC4)cc3)c2cc1OC [Example 1132]', 'nM', 146),
  ('COc1cc2nccc(Oc3ccc(S(=O)(=O)CCOc4ccc(C(C)C)cc4)cc3)c2cc1OC [Example 835]', 'nM', 668),
  ('COc1cc2nccc(Oc3ccc(NC(=S)NC(=O)c4ccc(C)cc4)cc3F)c2cc1OC [Example 970]', 'nM', 300),
  ('COc1cc2nccc(Oc3ccc(NC(=S)NC(=O)CCC4CCCC4)c(F)c3)c2cc1OC [Example 1027]', 'nM', 161);

P = COc1cc2ncnc(Oc3ccc(NC(=S)NC(=O)c4cccc(C)c4)cc3)c2cc1OC [Example 954]
Q = COc1cc2ncnc(Oc3ccc(NC(=S)NC(=O)CCCc4ccccc4)cc3)c2cc1OC [Example 1139]
R = COc1cc2nccc(Oc3ccc(SCCCCOc4ccccc4F)cc3)c2cc1OC [Example 843]
S = COc1cc2nccc(Oc3ccc(NC(=S)NC(=O)C4CC4c4ccccc4)cc3F)c2cc1OC (stereo not drawn) [Example 1057]
# input Hey, can you sort those molecules up there by IC50, smallest first? # the answer lists labels in the order requested
# output P, R, S, Q
(P: 131 nM, R: 263 nM, S: 447 nM, Q: 783 nM)

====

Assay system: c-kit (Homo sapiens, UniProt P10721)
Construct: MO7e (human megakaryocytic leukemia cell line) which had been arrested for 20 hr; endogenous in cells; host or cells: MO7e human megakaryocytic leukemia cell line
Measurement protocol: Inhibitory activity against c-kit autophosphorylation (MO7e cells, h-SCF)
Format: cell-based
Experimental conditions: MO7e cells, h-SCF 50 ng/ml; read-out: c-kit IC50
pIC50: −log10 of the molar value.
Endpoint label: pIC50

INSERT INTO assay_data (compound, observed_value) VALUES
  ('COc1cc2nccc(Oc3cc(C)c(NC(=O)OC4CCCCCC4)cc3C)c2cc1OC', 6.64);

P = COc1cc2ncnc(Oc3ccc(NC(=O)OC4CCCCCC4)c(Cl)c3)c2cc1OC
Q = COc1cc2nccc(Oc3cc(C)c(NC(=O)OC(C)c4ccc(F)cc4)cc3C)c2cc1OC (centres unmarked)
# input Looking at recorded values for pIC50, does P or Q come in lower? Returns: label corresponding to the selected item.
# output Q
(Q: 6.23, P: 6.63)

====

Assay system: c-kit (Homo sapiens)
Construct: MO7e (human megakaryocytic leukemia cell line) which had been arrested for 20 hr; endogenous in cells; host or cells: MO7e human megakaryocytic leukemia cell line
Measurement protocol: Inhibitory activity against c-kit autophosphorylation (MO7e cells, h-SCF)
Format: cell-based
Experimental conditions: MO7e cells, 50 ng/ml h-SCF; read-out: c-kit IC50
Endpoint label: IC50 (µM)

# example entries with known answers
INSERT INTO measurements (compound, endpoint_label, observed_value) VALUES
  ('COc1cc2ncnc(Oc3ccc(NC(=O)NC4CCN(Cc5ccccc5Cl)C4)c([N+](=O)[O-])c3)c2cc1OC (centres unmarked)', 'IC50', 0.18),
  ('COc1cc2nccc(Oc3cc(C)c(NC(=O)OC4CCCN(C)C4)cc3C)c2cc1OC (centres unmarked)', 'IC50', 0.432),
  ('COc1cc2ncnc(Oc3ccc(NC(=S)NCCN4CCOCC4)cc3)c2cc1OC', 'IC50', 0.875),
  ('CCN(CCNC(=O)Nc1ccc(Oc2ccnc3cc(OC)c(OC)cc23)cc1OC)c1cccc(C)c1', 'IC50', 0.082),
  ('COc1cc2nccc(Oc3ccc(NC(=S)NC(=O)c4ccccc4C)cc3)c2cc1OC', 'IC50', 0.434);

I = COc1cc2ncnc(Oc3ccc(NC(=O)N[C@H]4CCN(Cc5ccccc5)C4)cc3)c2cc1OC
II = COc1cc2ncnc(Oc3ccc(N(C)C(=O)OCc4ccccc4C)cc3)c2cc1OC
III = COc1cc(Oc2ccnc3cc(OC)c(OC)cc23)ccc1NC(=O)NC1CCN(Cc2ccccc2)CC1
# input Kindly order the items shown according to IC50, from the highest value down. Your reply should list the labels following the order given in the request.
# output III, II, I
(III: 0.554 µM, II: 0.315 µM, I: 0.118 µM)

P = COc1cc2ncnc(Oc3ccc(NC(=S)NC(=O)CC4CCCCC4)cc3)c2cc1OC
Q = CCOC(=O)N1CCC(NC(=O)Nc2ccc(Oc3ccnc4cc(OC)c(OC)cc34)cc2)CC1
R = COc1cc2nccc(Oc3ccc(NC(=O)NCCN4CCCC4)c(C)c3C)c2cc1OC
# input Parameters: sort_field (IC50), sort_dir (desc). List labels; respect the requested ordering.
# output R, P, Q

a = COc1cc2ncnc(Oc3ccc(NC(=O)NC4CCN(Cc5ccccc5C)C4)c(Cl)c3)c2cc1OC (centres unmarked)
b = COc1cc2ncnc(Oc3ccc(NC(=S)NCCCn4ccnc4)cc3)c2cc1OC
# input Identify the item whose IC50 is the smaller number: a or b Could you answer with the label of the item you picked?
# output a
(a: 0.348 µM, b: 0.731 µM)

1 = CCN(CC)CCCOC(=O)Nc1cc(C)c(Oc2ccnc3cc(OC)c(OC)cc23)cc1C
2 = CCCCC(=O)NC(=S)Nc1ccc(Oc2ncnc3cc(OC)c(OC)cc23)cc1
# input Larger number for IC50: 1 , or 2 ? To answer, give the label that identifies your chosen option.
# output 1

I = COc1cc(Oc2ncnc3cc(OC)c(OC)cc23)ccc1NC(=O)NC1CCN(Cc2ccccc2C)C1 (centres unmarked)
II = COc1cc(Oc2ncnc3cc(OC)c(OC)cc23)ccc1NC(=O)NCCN1CCOCC1
III = COc1cc2ncnc(Oc3ccc(NC(=O)OCCN4CCOCC4)cc3)c2cc1OC
# input Would you mind ranking these compounds by ascending IC50? Give me the labels in the order the question wants.
# output II, III, I

I = CCN(CC)CCNC(=O)Nc1ccc(Oc2ccnc3cc(OC)c(OC)cc23)c(C)c1C
II = COc1cc2nccc(Oc3cc(C)c(NC(=S)NCCN(C)C)cc3C)c2cc1OC
III = CCN(CCNC(=O)Nc1ccc(Oc2ccnc3cc(OC)c(OC)cc23)cc1[N+](=O)[O-])c1cccc(C)c1
# input Parameters: sort_field (IC50), sort_dir (desc). Output the labels ranked as instructed.
# output II, I, III

1 = COc1cc2nccc(Oc3ccc(NC(=O)NCCN(C(C)C)C(C)C)cc3)c2cc1OC
2 = COc1cc2ncnc(Oc3ccc(NC(=O)N[C@@H]4CCN(Cc5ccccc5)C4)c([N+](=O)[O-])c3)c2cc1OC
# input Between 1 and 2 , which one shows the smaller IC50 number? Kindly state the label of the option you pick.
# output 2

1 = CCCC(CCN1CCCCC1)OC(=O)Nc1ccc(Oc2ccnc3cc(OC)c(OC)cc23)c(C)c1C (centres unmarked)
2 = COc1cc2nccc(Oc3ccc(OCCCOc4ccc(C)cc4)cc3)c2cc1OC
# input Task for the reader: decide whether 1 or 2 has the larger IC50. Mark your answer with the label of the selected entry.
# output 1

====

Assay system: c-kit (Homo sapiens, UniProt P10721)
Construct: MO7e (human megakaryocytic leukemia cell line) which had been arrested for 20 hr; endogenous in cells; host or cells: MO7e human megakaryocytic leukemia cell line
Measurement protocol: Inhibitory activity against c-kit autophosphorylation (MO7e cells, h-SCF)
Assay type: cell-based
Experimental conditions: MO7e cells, h-SCF 50 ng/ml; read-out: c-kit IC50
pIC50: −log10 of the molar value.
Endpoint label: pIC50

INSERT INTO results (molecule, endpoint_label, observed_value) VALUES
  ('COc1cc2nccc(Oc3ccc(NC(=O)OCCCOc4ccccc4OC)cc3)c2cc1OC', 'pIC50', 7.46),
  ('COc1cc2nccc(Oc3cc(C)c(NC(=O)OCCCCCCN(C)C)cc3C)c2cc1OC', 'pIC50', 6.22),
  ('COc1cc2nccc(Oc3cc(C)c(NC(=O)OCCCOc4ccc(F)cc4)cc3C)c2cc1OC', 'pIC50', 7.21),
  ('COc1cc2nccc(Oc3ccc(NC(=O)OCc4ccc(Cl)cc4)cc3)c2cc1OC', 'pIC50', 7.33),
  ('COc1cc2ncnc(Oc3ccc(NC(=O)OC(C)c4ccccc4Br)cc3)c2cc1OC (stereo not drawn)', 'pIC50', 6.41),
  ('COc1cc2nccc(Oc3ccc(NC(=O)Oc4ccccc4)cc3)c2cc1OC', 'pIC50', 7.72);

A = COc1cc2nccc(Oc3ccc(NC(=O)OC(C)c4ccccc4F)cc3)c2cc1OC (stereo not drawn)
B = COc1cc2nccc(Oc3ccc(NC(=O)OCCCSc4ccc(C)cc4)c(C)c3C)c2cc1OC
# input Short answer wanted: higher pIC50, A or B ? Give the label of your selection.
# output B
(B: 7.48, A: 6.09)
